Tested on: HL-60 (human promyelocytic leukemia cells)
Experiment: CCK8 growth inhibition of leukemia cells, HL-60
Assay type: cell-based
Settings: Homo sapiens, HL-60, 48 h, read-out: IC50 HL-60
pIC50: −log10 of the molar value.

Compound | pIC50
Cc1cc2c(c(O)c1-c1c(C)cc3c(c1O)/C(=C/OC(=O)Nc1ccc(N)cc1)C(=O)C(O)=C3C(C)C)/C(=C/OC(=O)Nc1ccc(N)cc1)C(=O)C(O)=C2C(C)C [Compound 3] | 4.57
Cc1cc2c(c(O)c1-c1c(C)cc3c(c1O)/C(=C/OC(=O)Nc1ccccc1)C(=O)C(O)=C3C(C)C)/C(=C/OC(=O)Nc1ccccc1)C(=O)C(O)=C2C(C)C [Compound 1] | 4.50
CCNC(=O)O/C=C1\C(=O)C(O)=C(C(C)C)c2cc(C)c(-c3c(C)cc4c(c3O)/C(=C/OC(=O)NCC)C(=O)C(O)=C4C(C)C)c(O)c21 [Compound 2] | 4.04
Cc1cc2c(c(O)c1-c1c(C)cc3c(c1O)/C(=C/OC(=O)Nc1cccc4c(N)cccc14)C(=O)C(O)=C3C(C)C)/C(=C/OC(=O)Nc1cccc3c(N)cccc13)C(=O)C(O)=C2C(C)C [Compound 4] | 4.80
Cc1cc(-c2ccc(NC(=O)O/C=C3\C(=O)C(O)=C(C(C)C)c4cc(C)c(-c5c(C)cc6c(c5O)/C(=C/OC(=O)Nc5ccc(-c7ccc(N)c(C)c7)cc5C)C(=O)C(O)=C6C(C)C)c(O)c43)c(C)c2)ccc1N [Compound 5] | 4.55
